Tested on: Escherichia coli IAI1
Experiment: growth (OD595) fold change vs plate DMSO controls (fold change (ratio)); higher = more growth
Settings: 20 µM; incubation time: 27 h, anaerobic, 37 °C
Where a name gives a salt, the structure may show the parent alone.
Field: growth. Provide a value for each of the molecules that follow.
Reply briefly: the number, and no unit.

Query `COc1cccc(C(=O)NN(C(=O)c2cc(C)cc(C)c2)C(C)(C)C)c1C` on Escherichia coli IAI1; growth returned: 1.01

Query `COP(=S)(OC)SCN1C(=O)c2ccccc2C1=O` on Escherichia coli IAI1; growth returned: 1.08

Query C=CCN1CC[C@]23c4c5ccc(O)c4O[C@H]2C(=O)CC[C@@]3(O)[C@H]1C5 [Naloxone hydrochloride] on Escherichia coli IAI1; growth returned: 1.04

Query COc1cccc(C2(O)CCCCC2CN(C)C)c1 (stereo not given) [Tramadol hydrochloride] on Escherichia coli IAI1; growth returned: 0.988

Query `CS(=O)(=O)NC(=O)c1cc(Oc2ccc(C(F)(F)F)cc2Cl)ccc1[N+](=O)[O-]` on Escherichia coli IAI1; growth returned: 0.996

Each recorded value in this set is attributed to the supplement of paper PMC12494721.
